Value source: patent US11319324B2

# MEASUREMENT_TARGET: human P2X3 receptor (Homo sapiens, UniProt P56373)
# Sequence (P56373 whole entry): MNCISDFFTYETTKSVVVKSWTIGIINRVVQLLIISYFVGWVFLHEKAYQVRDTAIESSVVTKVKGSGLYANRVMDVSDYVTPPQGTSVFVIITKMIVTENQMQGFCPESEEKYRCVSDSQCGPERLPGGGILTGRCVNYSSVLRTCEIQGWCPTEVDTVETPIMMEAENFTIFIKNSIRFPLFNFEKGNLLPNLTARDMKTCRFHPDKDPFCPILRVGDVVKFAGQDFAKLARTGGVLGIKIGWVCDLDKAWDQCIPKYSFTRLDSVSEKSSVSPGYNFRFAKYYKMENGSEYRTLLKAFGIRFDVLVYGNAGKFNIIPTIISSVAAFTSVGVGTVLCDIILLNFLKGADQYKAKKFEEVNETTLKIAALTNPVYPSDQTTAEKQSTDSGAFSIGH
# PROTOCOL_NOTES: Intracellular calcium measurement, antagonist activity at human P2X3 receptors (hP2X3 1321N1), Fluo8
# Type: cell-based
# Set-up: expressed in transfected cells; host or cells: human astrocytoma 1321N1 (1312N1 [sic])
# EXPERIMENTAL_CONDITIONS: column 3); 1321N1 cells, human P2X3, Fluo8, agonist ATP at EC50
MEASURED_PROPERTY: IC50 (nM)
The answer is to be given in nM; state only the numeric part.

CCc1cc2n(CC(=O)Nc3ccc(F)cn3)c3c(c(=O)n2n1)CN(C[C@@H]1CCCO1)C3=O [Example 279] :: 270

# input Look at this molecule and give its reported IC50. CCc1cc2n(CC(=O)Nc3ccc(F)cn3)c3c(c(=O)n2n1)CN(C[C@H]1CN(C2CC2)CCO1)C3=O [Example 258]
# output 52

# input Request: CC(C)(C)c1cc2n(CC(=O)Nc3ccc(F)cn3)c3c(c(=O)n2n1)CN(CC1CC1)C3=O [Example 13]
# output 27

# input Request: Cc1cc(-c2cc3n(CC(=O)Nc4ccc(F)cn4)c4c(c(=O)n3n2)CN(C(C)C)C4=O)c(C)cn1 [Example 159]
# output 3

# input Request: CCc1cc2n(CC(=O)Nc3ccccn3)c3c(c(=O)n2n1)CN(C(C)C)C3=O [Example 64]
# output 433

# input Request: COCC(=O)Nc1cc2n(CC(=O)Nc3ccc(F)cn3)c3c(c(=O)n2n1)CN(C(C)C)C3=O [Example 285]
# output 143

# input Request: CCc1cc2n(CC(=O)Nc3ccc(F)cn3)c3c(c(=O)n2n1)CN(CC1CCN(C(=O)OC(C)(C)C)C1)C3=O (stereo not shown) [Example 80]
# output 63
